Sourced from patent US20230002503A1

Give measured pKd for each item. Keep answers brief.
Study target: human CAIX antigen (purchased from AcroBiosystems) (human, UniProt Q16790 38-414)
Assay details: BLI (ForteBio), antibody on AHQ sensor, 100 nM antigen, 1:1 model
Answer as the number alone; pKd is minus log10 of concentration in mol/L.

QUERY: Consider the binder shown here: H-YE-05 (Fc fusion, also called CAIX nanobody H-YE-05; not shown: human IgG1 Fc segment) QVQLQESGGGLVQPGGSRRLSCAASGNSVNIFSFAAVAWYRQAPGKQRELVAVITTTGGTKYSDSVKGRFTISRDSAKNTVLLQMNSLKPEDTAVYYCNADYLQDYWGQGTQVTVSS What is its recorded pKd?
RESULT: 9.25

QUERY: Would you mind telling me what pKd value was observed for H-YE-37 (Fc fusion, also called CAIX nanobody H-YE-37; not shown: human IgG1 Fc segment) QVQLQESGGGLMHDGDSLRLSCAASGRTFSTYAMGWFRQAPGKEREFVAAISWSGGSTYYADSVKGRFTISRDNAKNTVYLQMNSLKPEDTAVYYCAAEGIYNSGSSYHDANGYDYWGQGTQVTVSS ?
RESULT: 8.62

QUERY: Would you kindly share the measured pKd for H-YE-26 (Fc fusion, also called CAIX nanobody H-YE-26; not shown: human IgG1 Fc segment) QVQLQESGGGLVQAGGSLRLSCAASGNSVNIFRFATVAWYRQAPGEQRELVAVITSAGGTKYSDSVKGRFTISRDNAKNTVLLQMNSLKPEDTAVYYCNADFLQDYWGQGTQVTVSS ?
RESULT: 9.96

QUERY: Report pKd for H-YE-32 (Fc fusion, also called CAIX nanobody H-YE-32; not shown: human IgG1 Fc segment) QVQLQESGGGLVQPGGSLRLSCAASGGARNIFSFAAMAWYRQAPGKQRELVAVITSAGGTQYSSSVKGRFTISRDNAKKTVLLQMNSLKPEDTAVYYCNADYYQDYWGQGTQVTVSS please.
RESULT: 9.30

QUERY: Could you tell me which pKd is on file for H-YE-04 (Fc fusion, also called CAIX nanobody H-YE-04; not shown: human IgG1 Fc segment) QVQLQESGGGLVQPGGSLRLSCTASTSSFNFQTLGWYRQAPGNQRELVATITSRAITNYADSVKGRFTISRDNAAKTVSLQMNSLKPEDTAVYYCNAAWIGDYWGQGTQVTVSS ?
RESULT: 9.55

QUERY: Consider the binder shown here: H-YE-33 (Fc fusion, also called CAIX nanobody H-YE-33; not shown: human IgG1 Fc segment) QVQLQESGGGLVQPGGSLRLSCAASGGDFRFYDMGWYRQAPGKQRELVAGITTRGYTNYADVVKGRFTISRDNAKNTVYLEMNSLKPEDTAVYSCSASHFLGGRIDYWGQGTQVTVSS What is its recorded pKd?
RESULT: 8.69

QUERY: Given H-YE-38 (Fc fusion, also called CAIX nanobody H-YE-38; not shown: human IgG1 Fc segment) QVQLQESGGGLMQPGGSLTLSCAVPRFTLDYYAIGWFRQAPGKEREFVAAISWSGGTTQYSDSAKGRFTISRDNSKNTGYLQMNSLKPEDTATYYCAAGRQLEWRTYDYWGQGTQVTVSS , state its recorded pKd.
RESULT: 9.28

QUERY: Field request: pKd | item: H-YE-24 (Fc fusion, also called CAIX nanobody H-YE-24; not shown: human IgG1 Fc segment) QVQLQESGGGLVQPGGSLRLSCAASGNSVNIFRFAAMAWYRQAPGKQRELVAVITSAGGTKYSDSVKGRFTISRDNAKNTVLLQMNSLKPEDTAVYYCNADYLQDYWGQGTQVTVSS
RESULT: 8.87
